Numbers sourced from paper PMC8854719.

Test: Plasma pharmacokinetics of pamiparib (LC-MS/MS, non-compartmental)
Parameters: species or system human
Settings: human, in vivo, 80 mg, AUC0-9, Single Dose (Cycle 1 Day 1)

| structureAsSmiles | scaleUnit | AUC(0-t) |
| --- | --- | --- |
| C[C@]12CCCN1CC1=NNC(=O)c3cc(F)cc4[nH]c2c1c34 | ng·h/mL | 13200 |

* * *

Assay: Plasma pharmacokinetics of pamiparib (LC-MS/MS, non-compartmental)
Set-up: species or system human
Conditions: human, in vivo, 80 mg, Tmax, Steady State (Cycle 1 Day 17)

| structureAsSmiles | Tmax / h |
| --- | --- |
| C[C@]12CCCN1CC1=NNC(=O)c3cc(F)cc4[nH]c2c1c34 | 1.08 |

* * *

Assay: Plasma pharmacokinetics of pamiparib (LC-MS/MS, non-compartmental)
Set-up: species or system human
Conditions: human, in vivo, 10 mg, t1/2, Single Dose (Cycle 1 Day 1)

| structureAsSmiles | scaleUnit | half-life |
| --- | --- | --- |
| C[C@]12CCCN1CC1=NNC(=O)c3cc(F)cc4[nH]c2c1c34 | min | 845 |

* * *

Test: Plasma pharmacokinetics of pamiparib (LC-MS/MS, non-compartmental)
Parameters: species or system human
Settings: human, in vivo, 40 mg, Vz/F, Single Dose (Cycle 1 Day 1)
parameter: Vd/F (L)

| structureAsSmiles | valueMeasured |
| --- | --- |
| C[C@]12CCCN1CC1=NNC(=O)c3cc(F)cc4[nH]c2c1c34 | 31 |

* * *

Assay: Plasma pharmacokinetics of pamiparib (LC-MS/MS, non-compartmental)
Parameters: species or system human
Conditions: human, in vivo, 160 mg, AUC0-9, Single Dose (Cycle 1 Day 1)

| structureAsSmiles | AUC(0-t) [ng·h/mL] |
| --- | --- |
| C[C@]12CCCN1CC1=NNC(=O)c3cc(F)cc4[nH]c2c1c34 | 31800 |

* * *

Assay: Food-effects cohort: PK fasted vs high-fat meal
Assay type: in vivo, human
Details: human, plasma, oral; single 60 mg dose with a high-fat breakfast; read-out: Median Tmax

| structureAsSmiles | Tmax / h |
| --- | --- |
| C[C@]12CCCN1CC1=NNC(=O)c3cc(F)cc4[nH]c2c1c34 | 7 |

* * *

Assay: Plasma pharmacokinetics of pamiparib (LC-MS/MS, non-compartmental)
Design: species or system human
Settings: human, in vivo, Mean terminal half-life

| molecule | half-life |
| --- | --- |
| C[C@]12CCCN1CC1=NNC(=O)c3cc(F)cc4[nH]c2c1c34 [pamiparib] | ~13 h |

* * *

Experiment: Plasma pharmacokinetics of pamiparib (LC-MS/MS, non-compartmental)
Design: species or system human
Conditions: human, in vivo, 160 mg, Cmax, Steady State (Cycle 1 Day 17)
parameter: Cmax (ng/mL)

| structureAsSmiles | valueMeasured |
| --- | --- |
| C[C@]12CCCN1CC1=NNC(=O)c3cc(F)cc4[nH]c2c1c34 | 6870 |

* * *

Assay: Plasma pharmacokinetics of pamiparib (LC-MS/MS, non-compartmental)
Parameters: species or system human
Settings: human, in vivo, 60 mg, AUC0-9, Steady State (Cycle 1 Day 17)
Experimental: Patients in the dose-escalation phase received a single oral dose of pamiparib on day 1 of cycle 1 to collect samples for single-dose PK assessment over 48 h, followed by continuous daily doses (BID and QD) starting on day 3 of cycle 1 as a 21-day period of repeated drug administration (days 3–23), and then continued every 21-day cycle thereafter until disease progression, toxicity, or patient withdrawal. Eight BID dose levels (2.5, 5, 10, 20, 40, 60, 80, 120 mg) were administered (Fig. 1). […]
parameter: AUC(0-t) (ng·h/mL)

| compound | parameter | valueMeasured |
| --- | --- | --- |
| C[C@]12CCCN1CC1=NNC(=O)c3cc(F)cc4[nH]c2c1c34 [pamiparib] | AUC(0-t) | 25200 |
